# test summary: chemical genetic growth profiling, strain panel (AID 1159580);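 also: tested at 20 µM; growth read once vehicle control cultures reached saturation at 30 °C; 1 = growth at the plate median or of vehicle wells; lower values mean less growth of the strain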
# measurement conditions: S. cerevisiae deletion strains, growth OD, locus YDR334W, strain swr1, stronger effect = lower value
The whole screen tested about 5,500 compounds, of which about 2,000 (36%) were called active. Inconclusive results (about 18%) are left out. This is one part of the list.
normalized growth overview
// return just the number, without any unit appended

Query: normalized growth; subject: C[n+]1c2cc(N)ccc2cc2ccc(N)cc21
0.412

And what about the compound C[C@]12CCC(=O)C=C1C=CC1C2CC[C@@]2(C)C1CC[C@@]21CCC(=O)O1 (stereo not given in full) ?
0.977

Item: O=C(O)CCCc1ccc(N(CCCl)CCCl)cc1
0.969

Would you mind doing COc1ccc2c(c1)OC1(O)COc3cc(OC)c(OC)cc3C1=C2 (stereo not given) as well?
0.982

Record: COc1ccc2c(c1)OC/C(=C\c1ccc(OC)c(O)c1)C2=O
0.894

Lookup CC(=O)S[C@@H]1CC2=CC(=O)CC[C@]2(C)[C@H]2CC[C@@]3(C)[C@@H](CC[C@@]34CCC(=O)O4)C12 (stereo not given in full)
1

# repeat for COc1ccc(-c2coc3cc(O)ccc3c2=O)c(OC)c1
0.994

Also CC[C@]1(O)CC2CN(CCc3c([nH]c4ccccc34)[C@@](C(=O)OC)(c3cc4c(cc3OC)N(C)[C@H]3[C@@](O)(C(=O)OC)[C@H](OC(C)=O)[C@]5(CC)C=CCN6CC[C@]43[C@@H]65)C2)C1 (stereo not given in full) ?
0.955

And the next one, OCCc1ccccc1 ?
0.94

Entry to check: O=C(O)CCCc1ccccc1
0.978

---

Measured normalized growth, listed per entry for reference.
# test summary: chemical genetic growth profiling, strain panel (AID 1159580)
# measurement conditions: S. cerevisiae deletion strains, growth OD, locus YGR092W, strain DBF2, stronger effect = lower value
Among all 5,500 compounds or so, about 2,000 (36%) were called active. Inconclusive results (about 18%) are left out. Some of the results follow.
I only need the number, thanks.

Requested field: normalized growth. Item: N#C/C(=N/Nc1ccccc1)C(=O)c1ccccc1OC(F)(F)F
0.797

Lookup O=[N+]([O-])c1ccc(ON=C2CCCCC2)c([N+](=O)[O-])c1
0.602

For Cc1cc(C(=O)NNS(=O)(=O)c2ccc(F)c(Cl)c2)nn1-c1c(Cl)cc(Cl)cc1Cl then?
1.02

Now consider O=C(ON=C1CCCCC1)c1ccc([N+](=O)[O-])cc1 .
0.889

// next record Cc1cccc(NC(=S)N/N=C\c2ccc(F)cc2)c1
0.691

Thanks! And CC(C)(C)c1ccc(C(=N)SC(C(=O)C(F)(F)F)c2ccccc2)cc1 (stereo unspecified) ?
0.887

And for CC(=O)c1ccc(Cl)c(NS(=O)(=O)c2cc(Cl)c(Cl)cc2Cl)c1 ?
0.631

Another compound: Cc1cc(C)cc(Sc2ccc3nnc(-c4ccccc4)n3n2)c1
0.977

New cases:
Any idea what its normalized growth is? The compound is COc1cc(Cl)ccc1N/N=C(/C#N)C(N)=O
0.11

Another compound to look at: N#C/C(=N/Nc1ccc(F)cc1)C(=O)c1ccccc1
0.769

Request: Cc1c(C(=O)Sc2ccc(F)cc2F)sc2nc(C(F)(F)F)nn12
0.116

---

# test summary: chemical genetic growth profiling, strain panel (AID 1159580);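 also: tested at 20 µM; growth read once vehicle control cultures reached saturation at 30 °C; 1 = growth at the plate median or of vehicle wells; lower values mean less growth of the strain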
# measurement conditions: S. cerevisiae deletion strains, growth OD, locus YCL061C, strain MRC1, stronger effect = lower value
Out of some 5,500 compounds screened, about 2,000 (36%) were called active. Another 18% or so got no clear call; they are omitted. Some of the results follow.
Reported normalized growth values for a set of molecules
Please reply with the number alone, leaving off any unit.

Query (molecule): O=c1c(-c2ccc(O)cc2)coc2cc(O)ccc12 ; field requested: normalized growth
0.975

Lookup CCOC(=O)Cc1csc(N=CNO)n1
1.01

Entry to check: CC[C@@H](C(=O)C(C)[C@@H](O)[C@H](C)CCc1ccc(C)c(O)c1C(=O)O)C1OC(CC)(C2CC[C@](O)(CC)[C@H](C)O2)C[C@@H]1C (stereo partly specified)
1.04

// query: CCN1CCCC(OC(=O)C(c2ccccc2)c2ccccc2)C1 (stereo unspecified)
0.989

How about this molecule: OCC(O)CN1CCN(c2ccccc2)CC1 (stereo unspecified)
0.973

---
Give its normalized growth value. Item: C=C[C@@](C)(O)CCC1C(=C)C[C@H](OC(C)=O)C2C(C)(C)CCCC12C (stereo partly specified)
1.01

Next record, please: C=C[C@@](C)(O)CCC1C(=C)CCC2[C@@](C)(CO)CCC[C@]12C (stereo partly specified)
0.963

Moving on to the next molecule: CC1CCc2cc(F)cc3c(=O)c(C(=O)O)cn1c23 (stereo unspecified)
0.989

---

Catalogue of normalized growth values
# test summary: chemical genetic growth profiling, strain panel (AID 1159580);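 also: tested at 20 µM; growth read once vehicle control cultures reached saturation at 30 °C; 1 = growth at the plate median or of vehicle wells; lower values mean less growth of the strain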
# measurement conditions: S. cerevisiae deletion strains, growth OD, locus YML016C, strain PPZ1, stronger effect = lower value
About 2,000 (36%) of roughly 5,500 compounds were called active. Inconclusive results (about 18%) are left out. Some of the results follow.
I'd appreciate a reply containing only the number, no unit.

Which measured normalized growth value corresponds to CCN1CCCC(OC(=O)C(c2ccccc2)c2ccccc2)C1 (centres undefined) ?
1

Further cases:
Data request, read-out normalized growth, for CCCCC[C@H]1C(=O)O[C@H](C)[C@H](NC(=O)c2cccc(NC=O)c2O)C(=O)O[C@@H](C)[C@@H]1OC(=O)CC(C)C
0.946

Proceed to CCCCCCCCCCC[C@@H](C[C@H]1OC(=O)[C@H]1CCCCCC)OC(=O)[C@@H](CC(C)C)NC=O
1.04

Field entry: C=C1C2CC[C@@]3(C)[C@H](c4ccoc4)OC(=O)C[C@]13O[C@H]1CC(=O)C(C)(C)[C@H](C(OC(C)=O)C(=O)OC)[C@@]21C (some centres undefined)
1

---

# test summary: chemical genetic growth profiling, strain panel (AID 1159580);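 also: tested at 20 µM; growth read once vehicle control cultures reached saturation at 30 °C; 1 = growth at the plate median or of vehicle wells; lower values mean less growth of the strain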
# measurement conditions: S. cerevisiae deletion strains, growth OD, locus YDL040C, strain nat1, stronger effect = lower value
Among all 5,500 compounds or so, about 2,000 (36%) were called active. Not shown: some 18% with an inconclusive outcome. This is one part of the list.
# normalized growth per entry
Form rule: numeric answer, no unit written next to it.

What measured normalized growth goes with NCCc1cnc[nH]1 ?
1.02

Here is the next compound: CCC(C)C(=O)O[C@@H]1C[C@@]2(C)[C@H](c3ccoc3)OC(=O)CC23OC2(C)O[C@]14[C@]1(C)[C@@H](CC(=O)OC)C5(C)CC1(O)[C@](O)(C5OC(=O)C1(C)OC1C)[C@@H](OC(C)=O)[C@]34O2 (stereo partly drawn)
0.982

Please answer likewise for CC(=O)O[C@H]1C[C@@H](OC(C)=O)C(C)(C)C2CC(=O)[C@]3(C)C(CC[C@@]4(C)[C@H](C(=O)O)OC(=O)C5OC543)[C@]21C (stereo partly drawn)
0.995

And for CC(=O)Oc1cc(OC(C)=O)c2c(c1)O[C@H](c1ccc(OC(C)=O)c(OC(C)=O)c1)[C@H](OC(C)=O)C2 ?
1

Continue with CC[C@@]1(O)C[C@H](O)c2c(cc3c(c2O)C(=O)c2c(O)ccc(O)c2C3=O)[C@H]1C(=O)OC
0.967

Others:
Need normalized growth of C=CC[C@]1(O)CCC2C3CCC4=CC(=O)CCC4=C3C=C[C@@]21C (stereo partly drawn) , thanks.
0.991

Now the same for CC1(O)CC2C(CC1O)C2(C)C (stereo not drawn)
0.999

Lookup NCCS(=O)(=O)O
0.986

Entry to check: CCC(C)C(=O)O[C@@H]1C[C@@]2(C)[C@H](c3ccoc3)OC(=O)CC23OC2(C)OC34[C@H](OC(=O)C(C)C)[C@@]3(O)[C@@H](OC(=O)C5(C)OC5C)[C@@]5(C)C[C@]3(O)[C@@](C)([C@H]5CC(=O)OC)C14O2 (stereo partly drawn)
0.996

Now the compound COc1cc2nc(N(C)CCCNC(=O)C3CCCO3)nc(N)c2cc1OC (stereo not drawn)
0.993

Same read-out for C[C@]12CCC(=O)C=C1C=CC1C2CC[C@@]2(C)C1CC[C@@]2(O)CCC(=O)O (stereo partly drawn) ?
1.04

Now this one: COC(=O)C[C@H]1C2(C)CC34OC5(C)O[C@@]6([C@H](OC)C(OC(=O)C(C)C)[C@]7(C)C(/C(=C(/OC)C(C)C)C(=O)O[C@H]7c7ccoc7)[C@@]6(O5)[C@H](OC)[C@@]3(OC)C2OC(C)=O)[C@]14C (stereo partly drawn)
0.984

Same for COc1ccc(C(CN(C)C)C2(O)CCCCC2)cc1 (stereo not drawn)
0.962

Query CCCc1cc(C(N)=S)ccn1 next
0.964

Param item: C[n+]1c2cc(N)ccc2cc2ccc(N)cc21
0.718

// same read-out, input: O=C1NCC2(CCN(CCc3ccccc3)CC2)O1
0.996
